Below is a list of entries, each paired with its recorded abundance fitness value.
B1: Myocardin-related transcription factor A, residues 341 to 383; numbered along this chain, Q969V6 (parent)
chain: GALPANLDDMKVAELKQELKLRSLPVSGTKTELIERLRAYQDQ

Variants of: B1
Test: abundance fitness (aPCA) (normalised: wild type 0, dead -1); higher = more abundant; growth selection in yeast, the domain comes from the species named
Conditions: Homo sapiens
Form rule: numeric answer, no unit written next to it.

Answered examples (5):
Per the records, this variant ( "K30A" ) has abundance fitness equal to -0.403

Per the records, this variant ( "R38S" ) has abundance fitness equal to -0.126

Per the records, this variant ( "T31I" ) has abundance fitness equal to 0.092

Per the records, this variant ( "V26W" ) has abundance fitness equal to -0.538

Per the records, this variant ( "L24V" ) has abundance fitness equal to -0.342

New cases:
Per the records, this variant ( "S23W" ) has abundance fitness equal to -0.256

Per the records, this variant ( "R38K" ) has abundance fitness equal to -0.138

Per the records, this variant ( "Q43I" ) has abundance fitness equal to 0.042

Per the records, this variant ( "L21T" ) has abundance fitness equal to 0.094

Per the records, this variant ( "T31Q" ) has abundance fitness equal to -0.138

Where do these numbers come from? They come from the Human Domainome abundance scans (Beltran et al. 2025).
